Biological target: human renin (Homo sapiens, UniProt P00797)
Construct: A human plasma pool is used as the source of both the substrate (angiotensinogen) and the enzyme (renin)
Test: plasma renin assay (inhibition of human renin; angiotensin I generated, measured by radioimmunoassay)
Conditions: human plasma pool, pH 6.0, 2 h incubation at 37°
Labelling field: enter Met if recorded IC50 is less than 20 nM. Enter Not met if it equals or exceeds that cut-off.

CC(C)C[C@H](O)[C@H](O)[C@H](CC1CCCCC1)NC(=O)[C@@H](CC(=O)N(Cc1ccccc1)CC(C)(C)O)Cc1csc(N)n1 = Not met
CC(C)C[C@H](O)[C@H](O)[C@H](CC1CCCCC1)NC(=O)[C@@H](CC(=O)N(Cc1ccc2c(c1)OCO2)CC1(O)CCCCC1)CC1CC1 = Not met
CC(C)C[C@H](O)[C@H](O)[C@H](CC1CCCCC1)NC(=O)[C@@H](CC(=O)N(CC1CCCCCC1)CC(C)(C)O)Cc1csc(N)n1 = Met
CC(C)C[C@H](O)[C@H](O)[C@H](CC1CCCCC1)NC(=O)[C@@H](CC(=O)N(CC(=O)N(C)CCc1ccccn1)CC1(O)CCCCC1)Cc1csc(N)n1 = Met
CC(C)C[C@H](O)[C@H](O)[C@H](CC1CCCCC1)NC(=O)[C@@H](CC(=O)N(CC(=O)N(C)C)CC1(O)CCCCCC1)Cc1csc(N)n1 = Met

**Query** Hello, is IC50 of the following compound strictly smaller than 20 nM? CC(C)C[C@H](O)[C@H](O)[C@H](CC1CCCCC1)NC(=O)[C@@H](CC(=O)N(Cc1ccccc1)CC(O)c1ccccc1)CC1CC1 (some centres unmarked)
**Result** Not met

**Query** Then `CC(C)C[C@H](O)[C@H](O)[C@H](CC1CCCCC1)NC(=O)[C@@H](CC(=O)N(CC1CC1)CC1(O)CCCCC1)CC1CC1` ?
**Result** Not met

**Query** Then CC(C)C[C@H](O)[C@H](O)[C@H](CC1CCCCC1)NC(=O)[C@@H](CC(=O)N(CC(C)O)CC1CCCCC1)Cc1cscn1 (single isomer, unassigned) [Compound 39] ?
**Result** Met

* * *

Molecular target: human renin (Homo sapiens, UniProt P00797)
Construct: A human plasma pool is used as the source of both the substrate (angiotensinogen) and the enzyme (renin)
Sequence (P00797 67-406): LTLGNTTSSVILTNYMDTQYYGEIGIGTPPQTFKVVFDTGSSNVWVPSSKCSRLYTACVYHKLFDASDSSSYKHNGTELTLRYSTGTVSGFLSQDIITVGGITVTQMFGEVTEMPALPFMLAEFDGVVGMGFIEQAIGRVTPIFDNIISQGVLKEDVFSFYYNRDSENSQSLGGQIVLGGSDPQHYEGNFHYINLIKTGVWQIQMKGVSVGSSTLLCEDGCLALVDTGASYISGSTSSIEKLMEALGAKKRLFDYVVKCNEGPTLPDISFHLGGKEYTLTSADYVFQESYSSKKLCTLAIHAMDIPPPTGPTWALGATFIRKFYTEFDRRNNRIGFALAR
Test: plasma renin assay (inhibition of human renin; angiotensin I generated, measured by radioimmunoassay)
Conditions: human plasma pool, pH 6.0, 2 h incubation at 37°
assay_metric: pIC50
Give bare numbers, as −log10 of the molar value.

CC(C)C[C@H](O)[C@H](O)[C@H](CC1CCCCC1)NC(=O)[C@@H](CC(=O)N(CC1CCCC1)CC(C)(C)O)Cc1cscn1 [Compound 50] = 7.89
CC(C)C[C@H](O)[C@H](O)[C@H](CC1CCCCC1)NC(=O)[C@@H](CC(=O)N(CC1CCCCC1)CC(C)(C)O)Cc1csc(N)n1 [Compound 41] = 8.05

Now consider the entry below.
**Query** Quick check: pIC50 on human renin (Homo sapiens, UniProt P00797), item CC(C)C[C@H](O)[C@H](O)[C@H](CC1CCCCC1)NC(=O)[C@@H](CC(=O)N[C@H](CO)Cc1ccccc1)CC1CC1 [Compound 14] ?
**Result** 7.10

* * *

Target: human renin (Homo sapiens)
Construct: A human plasma pool is used as the source of both the substrate (angiotensinogen) and the enzyme (renin)
Assay: plasma renin assay (inhibition of human renin; angiotensin I generated, measured by radioimmunoassay)
Details: human plasma pool, pH 6.0, 2 h incubation at 37°
assay_metric: pIC50
Numbers only, as −log10 of the molar value.

These solved cases illustrate the format of a correct answer.
CC(=O)CN(CC1CCCCC1)C(=O)C[C@@H](Cc1cscn1)C(=O)N[C@@H](CC1CCCCC1)[C@@H](O)[C@@H](O)CC(C)C = 8.70
CC(C)C[C@H](O)[C@H](O)[C@H](CC1CCCCC1)NC(=O)[C@@H](CC(=O)N(CC(C)O)CC1CCCCC1)Cc1cscn1 (single isomer, unassigned) [Compound 40] = 7.96
CC(C)C[C@H](O)[C@H](O)[C@H](CC1CCCCC1)NC(=O)[C@@H](CC(=O)N(CC1CCCC1)CC(C)(C)O)Cc1csc(N)n1 = 8.15
CC(C)C[C@H](O)[C@H](O)[C@H](CC1CCCCC1)NC(=O)[C@@H](CC(=O)N(CCc1ccccn1)CC1(O)CCCCC1)CC1CC1 = 7.28
CC(C)C[C@H](O)[C@H](O)[C@H](CC1CCCCC1)NC(=O)[C@@H](CC(=O)N(CC1CCCCC1)CC(C)(C)O)Cc1cscn1 = 8.15
CC(C)C[C@H](O)[C@H](O)[C@H](CC1CCCCC1)NC(=O)[C@@H](CC(=O)N(CCO)CC1(O)CCCCC1)CC1CC1 = 7.46
CC(C)C[C@H](O)[C@H](O)[C@H](CC1CCCCC1)NC(=O)[C@@H](CC(=O)N(Cc1ccccn1)CC1(O)CCCCC1)CC1CC1 = 7.44
CC(C)C[C@H](O)[C@H](O)[C@H](CC1CCCCC1)NC(=O)[C@@H](CC(=O)N(CC(=O)C(C)C)CC1CCCCC1)Cc1csc(N)n1 = 8.30
CC(C)C[C@H](O)[C@H](O)[C@H](CC1CCCCC1)NC(=O)[C@@H](CC(=O)N(CC(=O)N(C)C)CC(O)C1CCCCC1)Cc1cscn1 (mixture of isomers) = 7.80
CC(C)C[C@H](O)[C@H](O)[C@H](CC1CCCCC1)NC(=O)[C@@H](CC(=O)N(CC(=O)C(C)C)CC1CCCCC1)Cc1cscn1 = 8.05

Give pIC50 for each of the items listed below.
1. CC(C)C[C@H](O)[C@H](O)[C@H](CC1CCCCC1)NC(=O)[C@@H](CC(=O)N(C)CC1(O)CCCCC1)Cc1c[nH]cn1
2. CC(C)C[C@H](O)[C@H](O)[C@H](CC1CCCCC1)NC(=O)[C@@H](CC(=O)N(CC(=O)N(C)C)CC1(O)CCCCC1)Cc1cccnc1

**Result**
7.17
7.48

Give pIC50 for each of the items listed below.
1. Cc1ccccc1CN(CC(C)(C)O)C(=O)C[C@@H](Cc1csc(N)n1)C(=O)N[C@@H](CC1CCCCC1)[C@@H](O)[C@@H](O)CC(C)C
2. CC(C)C[C@H](O)[C@H](O)[C@H](CC1CCCCC1)NC(=O)[C@@H](CC(=O)N(Cc1ccccn1)CC1(O)CCCCCC1)CC1CC1
3. COC1(CN(CC(=O)N(C)CCc2ccccn2)C(=O)C[C@@H](Cc2csc(N)n2)C(=O)N[C@@H](CC2CCCCC2)[C@@H](O)[C@@H](O)CC(C)C)CCCCC1
4. CC(C)C[C@H](O)[C@H](O)[C@H](CC1CCCCC1)NC(=O)[C@@H](CC(=O)N(CC(=O)N(C)C)CC1(O)CCCCC1)Cc1csc(N)n1
5. CCC[C@H](CC(=O)N(Cc1ccccc1)CC1(O)CCCCC1)C(=O)N[C@@H](CC1CCCCC1)[C@@H](O)[C@@H](O)CC(C)C

**Result**
1. 7.43
2. 7.19
3. 8.70
4. 8.89
5. 7.57

* * *

Biological target: human renin (Homo sapiens)
Construct: A human plasma pool is used as the source of both the substrate (angiotensinogen) and the enzyme (renin)
Test: plasma renin assay (inhibition of human renin; angiotensin I generated, measured by radioimmunoassay)
Details: human plasma pool, pH 6.0, 2 h incubation at 37°
Labelling field: enter 1 if recorded IC50 is less than 80 nM. Enter -1 if it equals or exceeds that cut-off.

These recorded examples may help you get a feel for the data.
CC(C)C[C@H](O)[C@H](O)[C@H](CC1CCCCC1)NC(=O)[C@@H](CC(=O)N(CC1CCCCC1)CC(C)(C)O)Cc1c[nH]cn1 = 1
CC(C)C[C@H](O)[C@H](O)[C@H](CC1CCCCC1)NC(=O)[C@@H](CC(=O)N[C@@H](CO)CC1CCCCC1)Cc1cscn1 = 1
CC(C)C[C@H](O)[C@H](O)[C@H](CC1CCCCC1)NC(=O)[C@@H](CC(=O)N(Cc1ccccc1)C[C@H](O)c1ccccc1)CC1CC1 = -1
CC(C)C[C@H](O)[C@H](O)[C@H](CC1CCCCC1)NC(=O)[C@@H](CC(=O)N(Cc1cccnc1)CC1(O)CCCCC1)CC1CC1 = 1
CN(C)C(=O)CN(CC1(O)CCCCC1)C(=O)C[C@@H](CC1CC1)C(=O)N[C@@H](CC1CCCCC1)[C@@H](O)[C@@H]1CC(C)(C)N(C)C1=O = 1

**Query** Hello, is IC50 of the following compound strictly smaller than 80 nM? `CC(C)C[C@H](O)[C@H](O)[C@H](CC1CCCCC1)NC(=O)[C@@H](CC(=O)N(Cc1ccccc1)CC1(O)CCCCC1)Cc1cscn1`
**Result** 1

**Query** Then CC(C)C[C@H](O)[C@H](O)[C@H](CC1CCCCC1)NC(=O)[C@@H](CC(=O)NC[C@@H](O)C1CCCCC1)CC1CC1 [Compound 20 (S)] ?
**Result** -1

**Query** Then `CC(C)C[C@H](O)[C@H](O)[C@H](CC1CCCCC1)NC(=O)[C@@H](CC(=O)N[C@@H](CO)[C@@H](O)c1ccccc1)CC1CC1` ?
**Result** -1

**Query** Then `CC(C)C[C@H](O)[C@H](O)[C@H](CC1CCCCC1)NC(=O)[C@@H](CC(=O)N(Cc1ccccn1)CC1(O)CCC(=O)CC1)CC1CC1` ?
**Result** -1

**Query** Then `CC(C)C[C@H](O)[C@H](O)[C@H](CC1CCCCC1)NC(=O)[C@@H](CC(=O)N(CCO)CC1(O)CCCCC1)Cc1cscn1` ?
**Result** 1

**Query** Then `CC(C)C[C@H](O)[C@H](O)[C@H](CC1CCCCC1)NC(=O)[C@@H](CC(=O)N(Cc1ccccc1)CC1(O)CCCCC1)Cc1c[nH]cn1` ?
**Result** 1

**Query** Then CC(C)C[C@H](O)[C@H](O)[C@H](CC1CCCCC1)NC(=O)[C@@H](CC(=O)NC[C@H](O)C1CCCCC1)CC1CC1 [Compound 20 (R)] ?
**Result** -1

**Query** Then `CC(C)C[C@H](O)[C@H](O)[C@H](CC1CCCCC1)NC(=O)[C@@H](CC(=O)N(Cc1ccc2c(c1)OCO2)CC1(O)CCCCC1)Cc1cscn1` ?
**Result** 1

**Query** Then `CC(C)C[C@H](O)[C@H](O)[C@H](CC1CCCCC1)NC(=O)[C@@H](CC(=O)N(Cc1ccccc1)CC1(O)CCCCC1)CC1CC1` ?
**Result** 1

Hello, the source for this data is patent US5523315A, in case you need it.
